B1: Chromodomain-helicase-DNA-binding protein 5, residues 338 to 390; numbered along this chain, Q8TDI0 (parent)
chain: YETDHQDYCEVCQQGGEIILCDTCPRAYHLVCLDPELEKAPEGKWSCPHCEKE

Variants of: B1
Experiment: abundance fitness (aPCA) (normalised: wild type 0, dead -1); higher = more abundant; growth selection in yeast, the domain comes from the species named
Conditions: Homo sapiens

variant: C50W
abundance fitness: -0.718
--
variant: I19P
abundance fitness: -1.07
--
variant: L37V
abundance fitness: -0.026
--
variant: G43Y
abundance fitness: -0.323
--
variant: E38C
abundance fitness: -0.221
--
variant: H49M
abundance fitness: -0.234
--
variant: Y28M
abundance fitness: -0.148
--
variant: P35C
abundance fitness: -0.313
--
variant: L30A
abundance fitness: 0.094
--
variant: Y28I
abundance fitness: -0.293
--
variant: C47S
abundance fitness: -0.609
--
variant: D22R
abundance fitness: -0.067
--
variant: P48I
abundance fitness: 0.025
--
variant: C21R
abundance fitness: -0.929
--
variant: D34R
abundance fitness: -0.125
--
variant: H49A
abundance fitness: -0.011
--
variant: P35G
abundance fitness: 0.181
--
variant: L30H
abundance fitness: -0.194
--
variant: V31F
abundance fitness: 0.047
--
variant: E17I
abundance fitness: 0.227
--
variant: E17V
abundance fitness: -0.358
--
variant: T23P
abundance fitness: -0.922
--
variant: R26T
abundance fitness: -0.436
--
variant: A27S
abundance fitness: -0.133
--
variant: K44S
abundance fitness: -0.125
--
variant: G16M
abundance fitness: 0.255
--
variant: R26G
abundance fitness: -0.029
--
variant: L20A
abundance fitness: 0.139
--
variant: C47A
abundance fitness: -0.841
--
variant: L20T
abundance fitness: 0.258
--
variant: E42S
abundance fitness: -0.241
--
variant: E38N
abundance fitness: -0.271
--
variant: K52P
abundance fitness: -0.5
--
variant: H49T
abundance fitness: 0.139
--
variant: L20D
abundance fitness: 0.127
--
variant: S46N
abundance fitness: -0.056
--
variant: Y28A
abundance fitness: -0.085
--
variant: P41E
abundance fitness: -0.114
--
variant: L37S
abundance fitness: 0.211
--
variant: T23E
abundance fitness: 0.026
--
variant: L37M
abundance fitness: -0.152
--
variant: I18Q
abundance fitness: 0.28
--
variant: C47P
abundance fitness: -0.96
--
variant: E42Y
abundance fitness: -0.076
--
variant: R26Y
abundance fitness: -0.144
--
variant: L33W
abundance fitness: 0.032
--
variant: G16E
abundance fitness: 0.027
--
variant: E42W
abundance fitness: -0.318
--
variant: P35K
abundance fitness: 0.082
--
variant: K44Y
abundance fitness: -0.599
--
variant: C32G
abundance fitness: -0.969
--
variant: S46F
abundance fitness: -0.035
--
variant: C21P
abundance fitness: -0.907
--
variant: R26Q
abundance fitness: 0.205
--
variant: I18P
abundance fitness: -0.228
--
variant: R26M
abundance fitness: 0.144
--
variant: H29M
abundance fitness: -0.547
--
variant: P25C
abundance fitness: -0.278
--
variant: E36H
abundance fitness: -0.18
--
variant: C24F
abundance fitness: -0.567
--
variant: H49Q
abundance fitness: 0.032
--
variant: D34P
abundance fitness: -0.15
--
variant: I18L
abundance fitness: -0.098
--
variant: R26W
abundance fitness: -0.18
--
variant: L30M
abundance fitness: 0.095
--
variant: P25S
abundance fitness: -0.1
--
variant: E42K
abundance fitness: -0.563
--
variant: H29G
abundance fitness: -0.744
--
variant: D22Y
abundance fitness: 0.088
--
variant: Y28S
abundance fitness: -0.075
--
variant: C50M
abundance fitness: -1.01
--
variant: L37K
abundance fitness: -0.04
--
variant: D34V
abundance fitness: -0.14
--
variant: K44H
abundance fitness: -0.341
--
variant: W45V
abundance fitness: 0
--
variant: H29V
abundance fitness: -1.1
--
variant: C24D
abundance fitness: -1.16
--
variant: A40C
abundance fitness: -0.396
--
variant: E38S
abundance fitness: -0.225
--
variant: E51A
abundance fitness: -0.12
--
variant: E17Q
abundance fitness: -0.377
--
variant: S46T
abundance fitness: 0.024
--
variant: E42P
abundance fitness: -0.184
--
variant: P41I
abundance fitness: 0.117
--
variant: L20M
abundance fitness: 0.371
--
variant: H49K
abundance fitness: 0.041
--
variant: C47I
abundance fitness: -0.95
--
variant: E38M
abundance fitness: 0.042
--
variant: C47Y
abundance fitness: -1.2
--
variant: R26L
abundance fitness: 0.154
--
variant: E53W
abundance fitness: -0.526
